# study.target: T1, APBA1_1, Q02410
# T1 sequence (Q02410 651-752, limits assumed, looked up): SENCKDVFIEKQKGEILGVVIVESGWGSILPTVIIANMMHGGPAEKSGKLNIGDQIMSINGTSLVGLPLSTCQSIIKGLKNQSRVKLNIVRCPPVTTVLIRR
# protocol: holdup assay
# Set-up: key: below the threshold = too weak to quantify, mostly under pKd 3.1 to 4
# experimental.context: plain residues with an end cap or a label only (N-terminal biotin on a linker: ado-ado)
attribute.measured: pKd

> print(dat)
                        binder              reading
1     EPQYQPGENL [SRC, P12931]  below the threshold
2  NTLNRKTTPV [CACNG8, Q8WXS5]  below the threshold
3  QRPYRRGSEI [KCNJ18, B7U540]  below the threshold
4   EDGESWEYQI [TRPV6, Q9H1D0]  below the threshold
